Taken from patent US8741892B2.

target: human recombinant mGluR5 (Homo sapiens); experiment: positive modulation of mGluR5, calcium based FLIPR assay; settings: HEK 293 cell line expressing human recombinant mGluR5; EC50 of the modulation from peak Ca fluorescence signal after glutamate at approx. 5% basal stimulation
Sequence (P41594 21-1212): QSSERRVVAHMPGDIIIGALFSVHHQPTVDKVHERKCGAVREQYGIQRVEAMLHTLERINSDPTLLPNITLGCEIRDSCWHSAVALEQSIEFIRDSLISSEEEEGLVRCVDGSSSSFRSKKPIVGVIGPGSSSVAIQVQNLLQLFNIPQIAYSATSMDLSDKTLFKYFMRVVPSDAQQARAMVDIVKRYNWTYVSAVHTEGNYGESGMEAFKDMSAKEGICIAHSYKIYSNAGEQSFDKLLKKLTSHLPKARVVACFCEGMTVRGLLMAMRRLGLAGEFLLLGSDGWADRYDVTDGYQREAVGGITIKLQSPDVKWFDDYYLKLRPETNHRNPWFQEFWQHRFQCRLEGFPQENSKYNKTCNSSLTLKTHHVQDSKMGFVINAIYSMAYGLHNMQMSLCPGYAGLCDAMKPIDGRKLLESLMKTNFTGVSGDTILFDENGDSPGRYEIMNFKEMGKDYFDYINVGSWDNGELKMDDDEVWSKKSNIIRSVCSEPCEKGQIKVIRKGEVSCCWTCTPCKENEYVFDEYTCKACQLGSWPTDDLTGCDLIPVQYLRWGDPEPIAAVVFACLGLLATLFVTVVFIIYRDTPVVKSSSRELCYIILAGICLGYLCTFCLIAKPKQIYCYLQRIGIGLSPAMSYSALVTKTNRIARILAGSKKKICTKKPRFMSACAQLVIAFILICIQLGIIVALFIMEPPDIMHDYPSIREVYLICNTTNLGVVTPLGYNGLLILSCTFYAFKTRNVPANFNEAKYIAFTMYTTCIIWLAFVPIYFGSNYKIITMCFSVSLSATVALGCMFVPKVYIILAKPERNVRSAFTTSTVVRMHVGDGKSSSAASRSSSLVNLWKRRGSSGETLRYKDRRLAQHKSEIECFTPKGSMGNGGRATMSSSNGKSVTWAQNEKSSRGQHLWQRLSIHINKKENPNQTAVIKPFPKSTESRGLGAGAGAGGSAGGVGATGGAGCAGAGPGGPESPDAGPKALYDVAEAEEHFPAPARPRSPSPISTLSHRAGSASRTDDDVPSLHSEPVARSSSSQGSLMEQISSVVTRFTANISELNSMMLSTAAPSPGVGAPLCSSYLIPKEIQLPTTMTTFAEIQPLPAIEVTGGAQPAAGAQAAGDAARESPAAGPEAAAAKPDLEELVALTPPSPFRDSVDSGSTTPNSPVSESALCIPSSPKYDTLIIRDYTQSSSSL
result type: EC50 (nM)
Report as a plain number; the unit nM is understood.

EC50 in this record for CCc1cc(-c2ccc(F)c(C)c2)nn1CC(=O)N1CCc2nc(C)oc2C1 [Example 7.01.077] : 110

The value of EC50 measured for the molecule COc1cc(-c2cc(-c3ccccc3)n(CC(=O)N3Cc4nc(C)sc4C3)n2)ccc1F [Example 7.02.150] turned out to be 28

The molecule O=C(Cn1nc(-c2ccccc2)cc1-c1ccccc1)N1CCc2cn[nH]c2CC1 [Example 7.01.006] showed EC50 equal to 870

Quick note, EC50 for CC(C)c1ncc2c(n1)CCN(C(=O)Cn1nc(-c3ccccc3)cc1-c1ccccc1)C2 [Example 7.01.029] landed at 796
